Quick reference for gMFI among some binders
# assayed-system: T1, huCD300LB-DAP12 fusion constitutively expressed on 293 Freestyle (Freestyle HEK) cells (human)
# T1 construct: also called Human CD300LB-DAP12 chimera
# T1 sequence (chain, as listed by the source limits assumed): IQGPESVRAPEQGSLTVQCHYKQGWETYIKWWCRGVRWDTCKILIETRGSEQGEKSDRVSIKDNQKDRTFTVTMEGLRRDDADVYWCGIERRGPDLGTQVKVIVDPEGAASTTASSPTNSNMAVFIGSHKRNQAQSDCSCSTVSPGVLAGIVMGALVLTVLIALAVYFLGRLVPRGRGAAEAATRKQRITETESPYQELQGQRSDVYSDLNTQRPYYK
# protocol-details: flow cytometry, stable Freestyle HEK cells
Give just the number in gMFI; leave the unit off.

Recorded gMFI, per entry:
anti-CD300LB antibody CD-07 (antibody, V domains shown) VH: QVQLVQSGAEVKKPGASVKVSCKASGYTFTNYRMHWVRQAPGQGLEWMGWINPNSGGTIYAQKFQGRVTMTRDTSTSTVYMELSSLRSEDTAVYYCARDLDYWGQGTLVTVSS VL: DIQMTQSPSSLSASVGDRVTITCQASQDISNYLNWYQQKPGKAPKLLIYGASSLQSGVPSRFSGSGSGTDFTLTISSLQPEDFATYYCQQSYSTPWTFGPGTKVEIK	31500
anti-CD300LB antibody CD-02 (antibody, V domains shown) VH: QVQLQQPGAELVRPGSSVKLSCQASGYTFTNYWMHWVRQRPIQGLEWIGNIDPSDSETHYNQKFKDRATLTVDKSSSTAYMQLSSLTSEDSAVYYCARSGVYDDEGGDYWGQGTTLTVSS VL: ENVLTQSPAIMSASPGEKVTMTCSASSSVSYIHWYQQKSSTSPKLWIYDTSKLASGVPGRFSGSGSGNSYSLTISSMETEDVATYYCFQGSGYPLTFGAGTKLELK	108
anti-CD300LB antibody CD-05 (antibody, V domains shown) VH: QVQLVQSGAEVKKPGASVKVSCKASGYTFSRYYINWVRQAPGQGLEWMGWINPNSGGTNYAQKFQGRVTMTRDTSTSTVYMELSSLRSEDTAVYYCTTDQLRFGKTGPYYGMDVWGQGTTVTVSS VL: DIQMTQSPSSLSASVGDRVTITCRASQNIGTYLNWYQQKPGKAPKLLIYAASSLQSGVPSRFSGSGSGTDFTLTISSLQPEDFATYYCQQSYSDTLTFGGGTKVEIK	113000
anti-CD300LB antibody CD-08 (antibody, V domains shown) VH: EVQLLESGGGLVQPGGSLRLSCAASGFTFSNAWMSWVRQAPGKGLEWVSVISGSGGRTYYADSVKGRFTISRDNSKNTLYLQMNSLRAEDTAVYYCARDGTTVAPKGMDVWGQGTTVTVSS VL: DIQMTQSPSSLSASVGDRVTITCQASQDINNYVNWYQQKPGKAPKLLIYAASNLQSGVPSRFSGSGSGTDFTLTISSLQPEDFATYYCQQSYSPPYTFGQGTKLEIK	56800

Here's the next entry for you.
Item: anti-CD300LB antibody CD-06 (antibody, V domains shown) VH: QVQLVQSGAEVKKPGASVKVSCKASGYTFTTYAVHWVRQAPGQGLEWMGIVNPNSGGTNYAQKFQGRVTMTRDTSTSTVYMELSSLRSEDTAVYYCARDIVPMNNFYNYYYGMDVWGQGTTVTVSS VL: DIQMTQSPSSLSASVGDRVTITCRASQSISSYLNWYQQKPGKAPKLLIYATSTLQSGVPSRFSGSGSGTDFTLTISSLQPEDFATYYCQQSYRIPYTFGQGTKVEIK | gMFI: 80900
